Source listed as patent US8088761B2.

compounds and their reported IC50
# Target desc: Aurora-B (Homo sapiens, UniProt Q96GD4)
# Sequence (Q96GD4 whole entry): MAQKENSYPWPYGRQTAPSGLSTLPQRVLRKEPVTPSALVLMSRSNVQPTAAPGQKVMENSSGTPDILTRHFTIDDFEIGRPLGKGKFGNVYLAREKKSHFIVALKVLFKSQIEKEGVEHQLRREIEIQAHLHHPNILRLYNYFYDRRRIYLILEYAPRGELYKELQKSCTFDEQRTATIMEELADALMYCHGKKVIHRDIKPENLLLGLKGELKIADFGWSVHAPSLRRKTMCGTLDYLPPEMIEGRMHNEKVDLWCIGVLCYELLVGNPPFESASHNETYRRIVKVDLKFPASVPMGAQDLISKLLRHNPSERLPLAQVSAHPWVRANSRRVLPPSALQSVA
# Test summary: Flashplate assay for Aurora-B inhibitors
# Format: biochemical
# Conditions used: read-out: IC50 against Aurora-B

# Test smiles, IC50
measured = [
    ("CN(C)c1ccc(-c2nc3c(N4CCN(CC(=O)Nc5nccs5)CC4)c(Br)cnc3[nH]2)cc1", "410 nM"),
]

Now turn to the next compound.
Request body: readout IC50, system Aurora-B (Homo sapiens, UniProt Q96GD4), query CN(C)c1ccc(-c2nc3c(N4CCN(CC(=O)Nc5nccs5)CC4)c(Cl)cnc3[nH]2)cc1 . Return the value.
110 nM

====

# Target desc: Aurora-A (Homo sapiens, UniProt O14965)
# Sequence (O14965 whole entry): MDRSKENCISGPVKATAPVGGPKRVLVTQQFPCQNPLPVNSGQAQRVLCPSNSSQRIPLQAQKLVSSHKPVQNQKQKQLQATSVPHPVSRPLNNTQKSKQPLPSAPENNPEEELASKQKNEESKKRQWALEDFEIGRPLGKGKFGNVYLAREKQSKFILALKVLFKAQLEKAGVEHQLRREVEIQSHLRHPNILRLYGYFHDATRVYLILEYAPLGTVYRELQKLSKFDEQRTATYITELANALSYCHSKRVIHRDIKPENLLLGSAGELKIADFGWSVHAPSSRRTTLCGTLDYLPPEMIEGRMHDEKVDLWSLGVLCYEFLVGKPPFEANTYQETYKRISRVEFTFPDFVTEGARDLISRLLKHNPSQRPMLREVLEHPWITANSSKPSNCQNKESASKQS
# Test summary: Flashplate Aurora A enzyme inhibition assay
# Format: biochemical
# Protocol: Flashplate® Assay for Identification and Evaluation of Aurora-A Inhibitors On this assay 384-well Basic Flashplate® (SMP400E, PerkinElmer) as solid assay platform was used. The plates were coated overnight at 4° C. with […] at 100 μg/ml in PBS buffer and used after being washed twice with PBS. […] The plate was then read on a TopCount-NX™ (PerkinElmer Life Sciences UK Ltd., Hounslow, UK).
Measured metric: IC50

# Test smiles, Measured metric, Reported measurement
records = [
    ("CC(C)CN1CCN(c2c(Br)cnc3[nH]c(-c4ccc(N(C)C)cc4)nc23)CC1", "IC50", "< 500 nM"),
]

Which measured IC50 value corresponds to CN(C)c1ccc(-c2nc3c(N4CCN(C(=O)Nc5ccccc5)CC4)c(Br)cnc3[nH]2)cc1 ?
< 500 nM
